System: COLO 320DM
Test: Antiproliferative activity against human COLO320DM cells assessed as inhibition of cell growth measured after 4 days by CellTiter-Glo assay
Format: functional
Conditions: 96 h
resultType: GI50

Consider the reported GI50 for these compounds:
compound	GI50
CN1CCCc2c1nc(N1CCC3(CC1)C(=O)N(CS(C)(=O)=O)c1cc(F)cc(F)c13)[nH]c2=O	530 nM
Cn1ccc2c(=O)[nH]c(N3CCC4(CC3)C(=O)N(CCO)c3cc(F)cc(F)c34)nc21	> 20000 nM
CN1CCCc2c1nc(N1CCC3(CC1)C(=O)N(CC(O)CO)c1cc(F)cc(F)c13)[nH]c2=O (centres undefined)	710 nM

# ---- query compound ----
Item CN1CCCc2c1nc(N1CCC3(CC1)CN(CCO)c1cc(F)cc(F)c13)[nH]c2=O was tested on COLO 320DM; the reported GI50 is 250 nM
